The following variants are shown together with reported fraction ligated values.
B1: F1*; the commonest letter at each place (parent)
chain: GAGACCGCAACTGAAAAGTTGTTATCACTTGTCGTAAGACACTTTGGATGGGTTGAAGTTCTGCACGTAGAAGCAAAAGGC

- Variants of: B1
- Assay info: fraction ligated after 30 min (ligated reads / total reads); higher = more ligase activity
- Reported conditions: with F1*sub RNA substrate (template-directed ligation), 42 °C
Respond with the number and no other words.

# annotated cases, reported fraction ligated shown
GAGACCGCAACTGAAAAGTTGTTATCACTTGTCGTAAGACAGTTTGGATGGGTTGAGGTTCTGCACGTAGAAGCAAAAGGC [C42G A57G]    0.807
GAGACCGCAACTGAAAAGTTGTTATCTCTTGTCGAAAGACACTTTGGATGGGTTGAAGTTCTGCACGTAGAAGCAAAAGGC [A27T T35A]    0.804
GAGACCGCAACTGAAAAGTTGTTATTACTTGTCGTAAGACACCTTGGATGGGTTGAAGTTCTGCACGTAGAAGCAAAAGGC [C26T T43C]    0.788
GAGACCGCAACTGAAAAGTTGTTATCACTTGTCGTAAGACACTTGGGATGGGTTGACGTTCTGCACGTAGAAGCAAAAGGC [T45G A57C]    0.791

Prompt line: Fill in fraction ligated for record GAGACCGCAACTGAAAAGTTGTTATCACATGTCGTAAGACCCTTTGGATGGGTTGAAGTTCTGCACGTAGAAGCAAAAGGC [T29A A41C]
Response line: 0.801

Prompt line: Give reported fraction ligated value for GAGACCGCAACTGAAAAGTTGTTATCACTTGTCATAAGACACTTTGGATGGGTTGCAGTTCTGCACGTAGAAGCAAAAGGC [G34A A56C]
Response line: 0.804

Prompt line: For the variant GAGACCGCAACTGAAAAGTTGTAATCACTTGTCGTAAAACACTTTGGATGGGTTGAAGTTCTGCACGTAGAAGCAAAAGGC [T23A G38A] , report fraction ligated.
Response line: 0.809

Prompt line: Respond only with fraction ligated recorded for GAGACCGCAACTGAAAAGTTGTTATCACTTGTCGCAAGACACGTTGGATGGGTTGAAGTTCTGCACGTAGAAGCAAAAGGC [T35C T43G]
Response line: 0.797

Prompt line: Please indicate fraction ligated recorded for GAGACCGCAACTGAAAAGTTGTTATCACATGTCGTAAGACACTTTGGTTGGGTTGAAGTTCTGCACGTAGAAGCAAAAGGC [T29A A48T]
Response line: 0.801
